For each record, write down the corresponding % cholesterol efflux/4 hours at 1.0 µg/ml.
molecular target: ATP-binding cassette transporter A1 (ABCA1) (UniProt P41233 1-2261, limits assumed); test: cell-based or functional assay
Sequence (P41233 whole entry): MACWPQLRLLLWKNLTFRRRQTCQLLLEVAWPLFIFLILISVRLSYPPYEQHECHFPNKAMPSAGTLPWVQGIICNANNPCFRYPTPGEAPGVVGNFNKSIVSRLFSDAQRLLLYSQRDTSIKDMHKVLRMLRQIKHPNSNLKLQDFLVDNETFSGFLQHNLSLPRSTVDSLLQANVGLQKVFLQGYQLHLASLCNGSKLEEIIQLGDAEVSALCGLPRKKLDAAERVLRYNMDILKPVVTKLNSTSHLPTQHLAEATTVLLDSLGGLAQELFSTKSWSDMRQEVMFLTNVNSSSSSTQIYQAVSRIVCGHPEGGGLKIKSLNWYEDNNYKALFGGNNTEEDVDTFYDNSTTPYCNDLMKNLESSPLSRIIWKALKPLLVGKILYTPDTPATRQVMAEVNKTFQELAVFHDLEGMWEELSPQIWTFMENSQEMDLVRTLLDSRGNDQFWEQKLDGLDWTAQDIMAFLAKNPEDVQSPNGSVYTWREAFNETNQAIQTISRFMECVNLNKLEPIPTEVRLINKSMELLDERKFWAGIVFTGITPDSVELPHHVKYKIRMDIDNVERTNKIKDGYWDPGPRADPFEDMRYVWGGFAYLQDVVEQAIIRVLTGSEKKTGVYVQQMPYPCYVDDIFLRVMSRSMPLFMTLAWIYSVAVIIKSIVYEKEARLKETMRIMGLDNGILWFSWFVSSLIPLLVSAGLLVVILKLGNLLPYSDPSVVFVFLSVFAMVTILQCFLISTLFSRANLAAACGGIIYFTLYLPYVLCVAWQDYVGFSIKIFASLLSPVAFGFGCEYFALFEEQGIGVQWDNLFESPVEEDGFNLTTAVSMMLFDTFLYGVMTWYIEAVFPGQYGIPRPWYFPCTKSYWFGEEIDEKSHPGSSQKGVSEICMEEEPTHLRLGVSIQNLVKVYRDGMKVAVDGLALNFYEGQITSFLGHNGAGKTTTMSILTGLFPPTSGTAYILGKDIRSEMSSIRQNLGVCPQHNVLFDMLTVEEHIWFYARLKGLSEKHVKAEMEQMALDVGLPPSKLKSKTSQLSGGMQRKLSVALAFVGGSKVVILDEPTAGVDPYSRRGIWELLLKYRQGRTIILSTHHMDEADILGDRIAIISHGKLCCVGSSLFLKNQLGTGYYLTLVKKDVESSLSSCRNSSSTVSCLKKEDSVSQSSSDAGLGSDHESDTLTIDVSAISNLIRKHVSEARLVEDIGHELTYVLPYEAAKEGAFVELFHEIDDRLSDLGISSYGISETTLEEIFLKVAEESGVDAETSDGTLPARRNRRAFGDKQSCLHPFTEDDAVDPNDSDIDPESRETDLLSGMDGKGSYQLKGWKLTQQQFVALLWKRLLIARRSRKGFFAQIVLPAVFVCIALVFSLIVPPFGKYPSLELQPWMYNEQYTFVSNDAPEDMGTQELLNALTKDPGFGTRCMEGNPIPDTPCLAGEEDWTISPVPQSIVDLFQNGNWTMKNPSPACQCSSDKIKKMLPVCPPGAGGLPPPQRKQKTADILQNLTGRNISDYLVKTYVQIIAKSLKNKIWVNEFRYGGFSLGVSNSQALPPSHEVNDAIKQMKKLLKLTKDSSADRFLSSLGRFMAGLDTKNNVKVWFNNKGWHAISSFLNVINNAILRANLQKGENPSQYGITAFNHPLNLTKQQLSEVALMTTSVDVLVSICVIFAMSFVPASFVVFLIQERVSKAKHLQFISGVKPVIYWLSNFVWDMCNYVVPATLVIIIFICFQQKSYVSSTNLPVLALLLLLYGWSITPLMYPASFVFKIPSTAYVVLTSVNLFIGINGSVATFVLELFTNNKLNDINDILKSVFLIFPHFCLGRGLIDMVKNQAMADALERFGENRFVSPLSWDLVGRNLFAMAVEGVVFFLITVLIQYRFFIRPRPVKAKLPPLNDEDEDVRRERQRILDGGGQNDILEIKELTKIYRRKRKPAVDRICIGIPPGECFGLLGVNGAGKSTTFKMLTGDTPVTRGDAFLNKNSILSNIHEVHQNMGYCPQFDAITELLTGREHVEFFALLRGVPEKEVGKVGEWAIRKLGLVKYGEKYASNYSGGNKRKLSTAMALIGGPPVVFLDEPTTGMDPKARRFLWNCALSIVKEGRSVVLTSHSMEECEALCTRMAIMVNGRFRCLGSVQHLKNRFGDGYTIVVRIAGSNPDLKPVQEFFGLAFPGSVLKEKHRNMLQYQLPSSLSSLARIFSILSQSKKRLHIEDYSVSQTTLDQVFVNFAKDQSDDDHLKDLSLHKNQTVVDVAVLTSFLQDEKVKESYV
Report field: quantity (unit follows the number).

Binder	Result
ELRDRLEAWFDLFREFLERF [N1154-4]	3.51%
ELRDKLEAWFDLFREFLERF [N1154-2]	2.17%
DLRDKLDAWFDLFRDFLDRF [N1154-3]	1.31%
ELRERLEAWFELFREFLERF [N1154-1]	2.06%

INPUT: Which value of % cholesterol efflux/4 hours at 1.0 µg/ml has been reported for DLRDRLDAWFDLFRDFLDRF [N1154-5] in the records?
OUTPUT: 2.77%
